Record set: Ki | Procathepsin L (Homo sapiens) | literature, multiple sources.

MOLECULE	SYSTEM_UNDER_TEST	Ki
C[C@H]1OCC(=O)[C@]1(C)NC(=O)[C@H](Cc1ccc(O)cc1)NC(=O)c1csc(-c2cccnc2)n1	Procathepsin L (Homo sapiens)	> 50000 nM
CC(C)NC(=O)N[C@@H](CC1(F)CCCC1)C(=O)N[C@]1(C(=O)C(=O)Nc2ccn(C)n2)C[C@@H](F)C1	Procathepsin L (Homo sapiens)	2200 nM
CCC(C)C(NC(=O)C(=O)C(C)NC(=O)CCNC(=O)OCc1ccccc1)C(=O)NC(C)(C)C(=O)O (stereo not drawn)	Procathepsin L (Homo sapiens)	> 1000 nM
O=C(N[C@H]1COCC1=O)O[C@@H](CC1CCCCC1)C(=O)N1CCOCC1	Procathepsin L (Homo sapiens)	> 100000 nM
CCCC[C@H](NC(=O)OC1(Cc2ccccc2)CCCC1)C(=O)C(=O)N[C@@H](C)C(=O)OCc1ccccc1	Procathepsin L (Homo sapiens)	> 1000 nM

Turning to the following molecule.
Prompt line: Hi! What's the reported Ki for "CCC[C@H](NC(=O)O[C@H](C(=O)N1CCOCC1)C1CCCCC1)C(=O)c1nc2ccccc2o1" on Procathepsin L (Homo sapiens)?
Response line: 2210 nM

----------
pKi: −log10 of the molar value.
Here's a roundup of pKi values tested on Procathepsin L (Homo sapiens), taken from various published works.
EXPERIMENTAL_READOUT: pKi

MOLECULE	pKi
CC1(C[C@H](NC(=O)OC(C)(C)C)C(=O)NC2(C(=O)C(N)=O)CC2)CCCC1	5.49
CCC(C)C(NC(=O)C(CC(C)C)NC(=O)Cc1cncnc1)C(=O)C(=O)NCC(=O)NC(Cc1ccc2ccccc2c1)C(N)=O (stereo not shown)	7.75

I. CCC(C)C(NC(=O)C(CC(C)C)NC(=O)C(Cc1ccccc1)NC(=O)Cc1ccncc1)C(=O)C(=O)NC(CCCNC(=N)N)C(N)=O (stereo not shown)
II. CCC(C)C(NC(=O)C(CC(C)C)NC(=O)C(Cc1ccccc1)NC(C)=O)C(=O)C(=O)NC(CCCNC(=N)N)C(N)=O (stereo not shown)
III. CC[C@H](C)C(NC(=O)[C@H](CC(C)C)NC(=O)OCc1ccccc1)C(=O)C(=O)N[C@@H](Cc1cccnc1)C(N)=O (stereo partly shown)
IV. O=C(N[C@H](C(=O)c1nc2ccc(F)cc2o1)C1CC1)O[C@@H](CC1CCCCC1)C(=O)N1CCOCC1
V. CCC(C)C(NC(=O)C(CCC(N)=O)NC(=O)Cc1ccccc1)C(=O)C(=O)NCC(=O)NC(Cc1ccc2ccccc2c1)C(N)=O (stereo not shown)
Prompt line: Rank ascending by pKi. Submit the labels in the order that the ranking request calls for.
Response line: IV, V, III, II, I

----------
Below are Ki measurements against Procathepsin L (Homo sapiens, UniProt P07711) drawn from the literature.
EXPERIMENTAL_READOUT: Ki (nM)

Worked set:
COMPOUND	SYSTEM_UNDER_TEST	REPORTED_VALUE
CC(NC(=O)C(Cc1ccccc1)NC(=O)Cc1ccccc1)C(=O)C(=O)NC(CCCNC(=N)N)C(=O)NC(C)(C)C(N)=O (stereo not shown)	Procathepsin L (Homo sapiens, UniProt P07711)	129
COC1CC(NC(=O)C(CC2(C)CCC2)NC(=O)N2CCOCC2)(C(=O)C(=O)NC2CC2)C1 (single isomer, unassigned)	Procathepsin L (Homo sapiens, UniProt P07711)	3800

A. CCOC(=O)NC(CC1(C)CCCC1)C(=O)NC1(C(=O)C(=O)Nc2ccn(C)n2)CC(OC)C1 (stereo not shown)
B. CCC(C)C(NC(=O)C(CC(C)C)NC(=O)OCc1ccccc1)C(=O)C(=O)NCC(=O)NC(Cc1ccncc1)C(N)=O (stereo not shown)
Prompt line: Which value of Ki is smaller, the one for A or the one for B ? Reply with the label of the item you choose.
Response line: B
(B: 4.39 nM, A: 2100 nM)
